- Test system: GRPS genomic biomarker signature (389 transcripts) in MUTZ-3 cells
- assay.comment: GARD assay with GARD Respiratory Prediction Signature (GRPS), SVM classification of respiratory sensitizers
- experimental.parameters: replicate stimulation 2; 24 h at GARD input concentration; independent test dataset; > 0 = respiratory sensitizer
- Protocol: The human acute myelomonocytic leukemia cell line MUTZ-3[68, 69] was obtained from Leibniz-Institut DSMZ-Deutsche Sammlung von Mikroorganismen und Zellkulturen (DSMZ, Braunschweig, Germany). […] Cell viability was determined using Propidium Iodide (BD Biosciences) staining. […] Data was acquired using FACS Diva software (BD Biosciences) and analyzed using FCS Express V4 (De Novo Software, Los Angeles, CA). […]
If the reported SVM decision value 2 equals or exceeds -1, assign Fulfilled. If not, assign Not fulfilled.

Exercise: Quick check, SVM decision value 2 >= -1? O=C(O)c1ccc(O)cc1 [p-hydroxybenzoic acid]
Key: Fulfilled

Exercise: Now consider C1CNCCN1 [Piperazine] .
Key: Fulfilled

Exercise: Now consider Cc1ccc(S(=O)(=O)NCl)cc1 [Chloramine T] .
Key: Fulfilled

Exercise: Now consider OCC(O)CO [Glycerol] .
Key: Not fulfilled

Exercise: Now consider Nc1ccc(N)cc1 [p-phenylenediamine] .
Key: Not fulfilled

Exercise: Now consider O=CC=O [Glyoxal] .
Key: Fulfilled

Exercise: Now consider O=C(O)c1ccccc1O [Salicylic acid] .
Key: Not fulfilled

Exercise: Now consider CC(O)C(=O)O (centres unmarked) [Lactic acid] .
Key: Fulfilled

Exercise: Now consider O=Cc1ccccc1 [Benzaldehyde] .
Key: Fulfilled

Exercise: Now consider CCOC(=O)c1ccccc1C(=O)OCC [Diethyl phthalate] .
Key: Fulfilled

Exercise: Now consider O=[N+]([O-])c1ccc(Cl)c([N+](=O)[O-])c1 [2,4-dinitrochlorobenzene] .
Key: Not fulfilled

Exercise: Now consider CCCCCCCC(=O)O [Octanoic acid] .
Key: Fulfilled

Exercise: Now consider O=C1OC(=O)c2ccccc21 [Phtalic Anhydride] .
Key: Fulfilled

Exercise: Now consider C=CCc1ccc(O)c(OC)c1 [Eugenol] .
Key: Not fulfilled

Exercise: Now consider Sc1nc2ccccc2s1 [2-mercaptobenzothiazole] .
Key: Fulfilled

Exercise: Now consider Clc1ccccc1 [Chlorobenzene] .
Key: Fulfilled

====

- assay.comment: physchem
- experimental.parameters: aqueous buffer, kinetic from dmso stock
Please provide measured solubility for the entries that follow.
Give the quantity in µM, number only.

Exercise: Please give the measured solubility for this compound: Cc1ccc(N=C=O)cc1N=C=O [Toluendiisocyanate]
Key: 40

Exercise: Now consider O=C=NCCCCCCN=C=O [Hexamethylen diisocyanate] .
Key: 100

====

- assay.comment: Max solubility of chemicals in cell media (establishment of GARD input concentration)
- experimental.parameters: aqueous buffer, kinetic from dmso stock
Please provide measured solubility for the entries that follow.
Give the quantity in µM, number only.

Exercise: Please give the measured solubility for this molecule: "OCC=Cc1ccccc1"
Key: 500

Exercise: Now consider O=C(O)c1ccc2c(c1)C(=O)OC2=O [Trimellitic anhydride] .
Key: 150

====

Please provide measured SVM decision value 1 for the entries that follow.
- Test system: GRPS genomic biomarker signature (389 transcripts) in MUTZ-3 cells
- assay.comment: GARD assay with GARD Respiratory Prediction Signature (GRPS), SVM classification of respiratory sensitizers
- experimental.parameters: replicate stimulation 1; 24 h at GARD input concentration; independent test dataset; > 0 = respiratory sensitizer
Hey, just send me the number, nothing else.

Exercise: Please give the measured SVM decision value 1 for this molecule: O=C(O)c1ccc(O)cc1 [p-hydroxybenzoic acid]
Key: −0.81

Exercise: Now consider "Cc1ccc(S(=O)(=O)NCl)cc1" .
Key: 0.52

Exercise: Now consider "Nc1ccc(N)cc1" .
Key: −1.38

Exercise: Now consider "O=[N+]([O-])c1ccc(Cl)c([N+](=O)[O-])c1" .
Key: −1.66

Exercise: Now consider "OCC=Cc1ccccc1" .
Key: −0.57

Exercise: Now consider "C=CCc1ccc(O)c(OC)c1" .
Key: −1.67

Exercise: Now consider "Sc1nc2ccccc2s1" .
Key: −0.44

Exercise: Now consider "Oc1cccc(O)c1" .
Key: −1.01

Exercise: Now consider CC(O)C(=O)O (stereo not drawn) .
Key: −1.20

Exercise: Now consider "O=CC=O" .
Key: −1.02

Exercise: Now consider "Clc1ccccc1" .
Key: −1.03

Exercise: Now consider CCOC(=O)c1ccccc1C(=O)OCC [Diethyl phthalate] .
Key: −1.37

Exercise: Now consider "O=Cc1ccccc1" .
Key: −0.79

Exercise: Now consider O=C1OC(=O)c2ccccc21 [Phtalic Anhydride] .
Key: 0.20

Exercise: Now consider "CCCCCCCC(=O)O" .
Key: −0.65

Exercise: Now consider "C1CNCCN1" .
Key: −0.05

Exercise: Now consider "OCC(O)CO" .
Key: −1.05

Exercise: Now consider "O=C(O)c1ccccc1O" .
Key: −0.73

The reported measurements were obtained from paper PMC4356558.
